# Test system: LXRa homodimer (NR concentration 270 nM)
# METHOD_SUMMARY: PBM binding z-score (relative to random genomic background probes); higher = stronger binding; sequences stand for … in GC…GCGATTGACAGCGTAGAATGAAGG
TEST_READOUT: PBM binding z-score
Answers are plain numbers.

Some solved cases for reference:
{"ITEM_SEQUENCE": "ATATATAGGTTATCGGGTCATTCAGTTTGCGCAT", "PBM binding z-score": 2.66}
{"ITEM_SEQUENCE": "ATCGAAAGGTTGTGAGGTGAGTATACAGAAAGGC", "PBM binding z-score": -0.189}
{"ITEM_SEQUENCE": "ATCGAAAGGTCGAAGGTGAGTGTACCCACCCGAA", "PBM binding z-score": 0.164}
{"ITEM_SEQUENCE": "ATCCCAAGGTGATCGTGAGGTCGTTGATACTAAC", "PBM binding z-score": 0.822}
{"ITEM_SEQUENCE": "GGAACGAGGGCAAAGTTGAAAGCATCTGTCGACG", "PBM binding z-score": -0.458}

List PBM binding z-score for every entry below, keeping the order given.
1. AGAGCGAGGGCACGCTGAGTTGATAGCAGAGTAG
2. TGATTGAGGTTATAAGATCAGGGAACGTTGCAAA
3. CCGACTGGGGCAAGGTTAACATAACGCACAGCCA
4. TCATATAGGCAAAAGGTGAAAGTCGGTGTGGTAA
5. AATACAGGGTCACTAGGACAGAGTAGGTACGAAT

Resp:
[-0.567, -0.174, -0.0664, -0.253, 1.08]

List PBM binding z-score for every entry below, keeping the order given.
1. TCGAGTTGGTCACGGAGGTCACACACGACGGGTA
2. TCTAGTAGTTGAAGGGCAACCGACGAGTCCGTTT

Resp:
1: 1.8; 2: -0.0916

The values you see were collected from the supplement of paper PMC6555819.
